- TEST SUMMARY: Rat pharmacokinetics, intravenous administration
- Format: in vivo
- CONDITION: rat, plasma, iv, 5 mg/kg, Rat 2, read-out: Plasma CL
READOUT TYPE: clearance (mL/min/kg)
# number only, unit mL/min/kg dropped from output

Value lookup for clearance; key = O=C(Nc1ccc2sc(-c3ccc(F)c(F)c3)nc2c1)N1CC[C@H](F)C1 8.38

----------
- TEST SUMMARY: Distribution between mouse plasma and brain (brain penetration, ip)
- Assay type: in vivo
- CONDITION: Table 14; mice, single ip dose 5 mg/kg, one hour post-dose
READOUT TYPE: Brain/plasma ratio
Number only, no unit.

Value lookup for Brain/plasma ratio; key = O=C(Nc1ccc2sc(-c3cccc(F)c3F)nc2c1)N1CCCC1 1.76

Value lookup for Brain/plasma ratio; key = O=C(Nc1ccc2sc(-c3ccc(F)c(F)c3)nc2c1)N1CC[C@H](F)C1 4.0

Value lookup for Brain/plasma ratio; key = O=C(Nc1ccc2oc(-c3ccccc3)nc2c1)N1CCCC1 1.58

Value lookup for Brain/plasma ratio; key = O=C(Nc1ccc2sc(-c3ccc(F)c(F)c3)nc2c1)N1CCC(F)CC1 1.01

Value lookup for Brain/plasma ratio; key = O=C(Nc1ccc2sc(-c3cccc(F)c3)nc2c1)N1CCCC1 1.01

Value lookup for Brain/plasma ratio; key = O=C(Nc1ccc2sc(-c3ccc(F)c(F)c3)nc2c1)N1CCCCC1 0.510

Value lookup for Brain/plasma ratio; key = O=C(Nc1ccc2sc(-c3ccccc3)nc2c1)N1CCCC1 1.24

Value lookup for Brain/plasma ratio; key = O=C(Nc1ccc2sc(-c3ccc(F)c(F)c3)nc2c1)N1C[C@@H](F)[C@H](F)C1 7.71
